Data origin: patent US5202315A

system: Citrobacter freundii ATCC 8090; experiment: Antibacterial activity, MIC; format: cell-based; conditions: ATCC8090, ATCC 8090, agar two-fold dilution, 37° C., 20 hours, read-out: MIC
As shown below, each of these compounds has a reported MIC value.
Answer format: numeric, µg/mL implied, no suffix.

1. CC(O/N=C(\C(=O)NC1C(=O)N2C(C(=O)[O-])=C(CSc3nc(N)cc(N)[n+]3C)CSC12)c1csc(N)n1)C(=O)O (stereo not drawn) | 0.063
2. CC[n+]1c(N)cc(N)nc1SCC1=C(C(=O)[O-])N2C(=O)C(NC(=O)/C(=N\OC)c3nsc(N)n3)C2SC1 (stereo not drawn) | 0.13
3. Cc1c(N)nc(SCC2=C(C(=O)[O-])N3C(=O)C(NC(=O)/C(=N\OC(C)(C)C(=O)O)c4csc(N)n4)C3SC2)[n+](C)c1N (stereo not drawn) | 0.13
4. Cc1c(N)nc(SCC2=C(C(=O)[O-])N3C(=O)C(NC(=O)/C(=N\OC(C)(C)C(=O)O)c4csc(N)n4)C3SC2)[n+](N)c1N (stereo not drawn) | 0.063
5. CO/N=C(\C(=O)NC1C(=O)N2C(C(=O)[O-])=C(CSc3nc(N)cc(N)[n+]3C)CSC12)c1csc(N)n1 (stereo not drawn) | 0.063
6. CCC[n+]1c(N)cc(N)nc1SCC1=C(C(=O)[O-])N2C(=O)C(NC(=O)/C(=N\OC(C)(C)C(=O)O)c3nsc(N)n3)C2SC1 (stereo not drawn) | 0.13
7. CC(C)(O/N=C(\C(=O)NC1C(=O)N2C(C(=O)[O-])=C(CSc3nc(N)cc(N)[n+]3C3CC3)CSC12)c1csc(N)n1)C(=O)O (stereo not drawn) | 0.13
8. CC[n+]1c(N)cc(N)nc1SCC1=C(C(=O)[O-])N2C(=O)C(NC(=O)/C(=N\OC(C)(C)C(=O)O)c3nsc(N)n3)C2SC1 (stereo not drawn) | 0.25
9. CCO/N=C(\C(=O)NC1C(=O)N2C(C(=O)[O-])=C(CSc3nc(N)cc(N)[n+]3N)CSC12)c1nsc(N)n1 (stereo not drawn) | 0.063
10. CCc1c(N)nc(SCC2=C(C(=O)[O-])N3C(=O)C(NC(=O)/C(=N\OC(C)(C)C(=O)O)c4csc(N)n4)C3SC2)[n+](CC)c1N (stereo not drawn) | 0.13

[Q] Entry C=CC[n+]1c(N)cc(N)nc1SCC1=C(C(=O)[O-])N2C(=O)C(NC(=O)/C(=N\OC(C)C(=O)O)c3csc(N)n3)C2SC1 (stereo not drawn) : reported MIC = ?
[A] 0.063

[Q] Similarly, CCO/N=C(\C(=O)NC1C(=O)N2C(C(=O)[O-])=C(CSc3nc(N)cc(N)[n+]3C)CSC12)c1nsc(N)n1 (stereo not drawn) ?
[A] 0.13
